- protocol: qHTS assay to identify small molecule agonists of the RXR signaling pathway - cell viability counter screen (AID 1159529); also: nearly all actives have a fitted effect of over 50% in size; also: potency is read from the fitted curve at half-maximal effect
- test-parameters: RXR-alpha-bla HEK293T viability, CellTiter-Glo, 16 h; series mostly up to 76.8 µM
Records with an inconclusive call do not appear. The source made the active and inactive calls. Calls follow the shape of the dose curve; as a rule, active = well fitted cell-killing curve with a large enough effect in the repeat runs; inconclusive = weak or mixed curves, or effect the other way; inactive = no such curve, though single readings can be large or run the other way.
measurement-type: Potency

Exam item: Quick check: Potency of BrCBr ?
Marked response: inactive

Exam item: Moving on to the next compound: Clc1ccc(CSC(Cn2ccnc2)c2ccc(Cl)cc2Cl)cc1 (stereo not drawn)
Marked response: 26.8 µM (active)

Exam item: Moving on to the next compound: CC(C)CBr
Marked response: inactive

Exam item: Moving on to the next compound: CC(=O)/C=C/c1ccc2c(c1)OCO2
Marked response: inactive

Exam item: Moving on to the next compound: CCSC(C)CC1CC(=O)C(/C(CC)=N/OC/C=C/Cl)=C(O)C1 (stereo not drawn)
Marked response: inactive

Exam item: Moving on to the next compound: CCOP(=S)(OCC)SCS(=O)(=O)C(C)(C)C
Marked response: inactive

Exam item: Moving on to the next compound: ClCc1ccccc1CCl
Marked response: inactive

Exam item: Moving on to the next compound: C[As+](C)(C)CC(=O)[O-]
Marked response: inactive

Exam item: Moving on to the next compound: OC(c1ccc(Cl)cc1)(c1ccc(Cl)cc1)C(Cl)(Cl)Cl
Marked response: inactive

Exam item: Moving on to the next compound: O=[N+]([O-])c1cc([N+](=O)[O-])c2ccccc2c1
Marked response: inactive

Others:
Exam item: Quick check: Potency of CC1(C)C(/C=C(\Cl)C(F)(F)F)C1C(=O)OC(C#N)c1cccc(Oc2ccccc2)c1 (stereo not drawn) ?
Marked response: inactive

Exam item: Moving on to the next compound: CC(=O)[O-].CC(=O)[O-].O.O.[Cd+2]
Marked response: 13.6 µM (active)

Exam item: Moving on to the next compound: CC(C)(c1ccc(O)c(-c2ccccc2)c1)c1ccc(O)c(-c2ccccc2)c1
Marked response: 24.5 µM (active)
